Target: human acetyl-CoA carboxylase 2 (ACC2) (Homo sapiens)
Construct: The cDNA encoding amino acids 144 to 2458 of human acetyl-CoA carboxylase 2; made in house; host or cells: Sf9 insect cells (baculovirus, pFastBac1)
Assay: Acetyl-CoA carboxylase enzyme assay (malonyl-CoA formation by LC/MS/MS)
Assay type: biochemical
Conditions: recombinant human ACC2 (aa 144-2458); read-out: IC50 ACC2
Text: The cDNA encoding amino acids 144 to 2458 of human acetyl-CoA carboxylase 2 (ACC2, GenBank Accession #NM_001093) was cloned into the SalI and NotI sites of pFastBac1 (Invitrogen; Carlsbad, Calif.). The resulting plasmid was used to generate a recombinant ACC2 baculovirus that was amplified and titered according to the protocols in the Bac-to-Bac baculovirus expression system manual (Invitrogen). […]
pIC50: −log10 of the molar value.
Each item that follows carries a reported pIC50.
ASSAY_METRIC: pIC50

# MOLECULE, ASSAY_TARGET, ASSAY_METRIC, RESULT_VALUE
records = [
    ("CCn1c(-c2ccccc2)cc2ccc(S(=O)(=O)N[C@H]3CC[C@H](C(=O)N4CCOC[C@@H]4C)CC3)cc21 [Example 486]", "human acetyl-CoA carboxylase 2 (ACC2) (Homo sapiens)", "pIC50", 7.12),
    ("CC(C)(C)c1nnc(-c2ccc(NS(=O)(=O)c3ccc4[nH]c(-c5ccc(N6CCOCC6)cc5)nc4c3)cc2)o1 [Example 593]", "human acetyl-CoA carboxylase 2 (ACC2) (Homo sapiens)", "pIC50", 6.00),
    ("Cc1cc(CO)ccc1-c1cc2ccc(S(=O)(=O)N[C@H]3CC[C@H](C(=O)N4CCN(C(=O)OC(C)(C)C)C[C@@H]4c4ccccc4)CC3)cc2[nH]1 [Example 309]", "human acetyl-CoA carboxylase 2 (ACC2) (Homo sapiens)", "pIC50", 7.70),
    ("Cc1ccccc1-c1cc2ccc(S(=O)(=O)N[C@H]3CC[C@H](C(=O)N4CCCC4c4ccccc4)CC3)cc2[nH]1 (stereo partly drawn) [Example 335]", "human acetyl-CoA carboxylase 2 (ACC2) (Homo sapiens)", "pIC50", 7.60),
    ("CC(C)OC(=O)c1ccc(NS(=O)(=O)c2ccc3[nH]c(-c4ccc(CNCc5ccccc5)cc4)nc3c2)cc1 [Example 560]", "human acetyl-CoA carboxylase 2 (ACC2) (Homo sapiens)", "pIC50", 6.40),
    ("COC[C@H]1CCCN1C(=O)[C@H]1CC[C@H](NS(=O)(=O)c2ccc3c(C#N)c(C4CC4)n(C)c3c2)CC1 [Example 418]", "human acetyl-CoA carboxylase 2 (ACC2) (Homo sapiens)", "pIC50", 7.19),
]

###

Target: human acetyl-CoA carboxylase 2 (ACC2) (Homo sapiens, UniProt O00763)
Construct: The cDNA encoding amino acids 144 to 2458 of human acetyl-CoA carboxylase 2; made in house; host or cells: Sf9 insect cells (baculovirus, pFastBac1)
Sequence (O00763 144-2458): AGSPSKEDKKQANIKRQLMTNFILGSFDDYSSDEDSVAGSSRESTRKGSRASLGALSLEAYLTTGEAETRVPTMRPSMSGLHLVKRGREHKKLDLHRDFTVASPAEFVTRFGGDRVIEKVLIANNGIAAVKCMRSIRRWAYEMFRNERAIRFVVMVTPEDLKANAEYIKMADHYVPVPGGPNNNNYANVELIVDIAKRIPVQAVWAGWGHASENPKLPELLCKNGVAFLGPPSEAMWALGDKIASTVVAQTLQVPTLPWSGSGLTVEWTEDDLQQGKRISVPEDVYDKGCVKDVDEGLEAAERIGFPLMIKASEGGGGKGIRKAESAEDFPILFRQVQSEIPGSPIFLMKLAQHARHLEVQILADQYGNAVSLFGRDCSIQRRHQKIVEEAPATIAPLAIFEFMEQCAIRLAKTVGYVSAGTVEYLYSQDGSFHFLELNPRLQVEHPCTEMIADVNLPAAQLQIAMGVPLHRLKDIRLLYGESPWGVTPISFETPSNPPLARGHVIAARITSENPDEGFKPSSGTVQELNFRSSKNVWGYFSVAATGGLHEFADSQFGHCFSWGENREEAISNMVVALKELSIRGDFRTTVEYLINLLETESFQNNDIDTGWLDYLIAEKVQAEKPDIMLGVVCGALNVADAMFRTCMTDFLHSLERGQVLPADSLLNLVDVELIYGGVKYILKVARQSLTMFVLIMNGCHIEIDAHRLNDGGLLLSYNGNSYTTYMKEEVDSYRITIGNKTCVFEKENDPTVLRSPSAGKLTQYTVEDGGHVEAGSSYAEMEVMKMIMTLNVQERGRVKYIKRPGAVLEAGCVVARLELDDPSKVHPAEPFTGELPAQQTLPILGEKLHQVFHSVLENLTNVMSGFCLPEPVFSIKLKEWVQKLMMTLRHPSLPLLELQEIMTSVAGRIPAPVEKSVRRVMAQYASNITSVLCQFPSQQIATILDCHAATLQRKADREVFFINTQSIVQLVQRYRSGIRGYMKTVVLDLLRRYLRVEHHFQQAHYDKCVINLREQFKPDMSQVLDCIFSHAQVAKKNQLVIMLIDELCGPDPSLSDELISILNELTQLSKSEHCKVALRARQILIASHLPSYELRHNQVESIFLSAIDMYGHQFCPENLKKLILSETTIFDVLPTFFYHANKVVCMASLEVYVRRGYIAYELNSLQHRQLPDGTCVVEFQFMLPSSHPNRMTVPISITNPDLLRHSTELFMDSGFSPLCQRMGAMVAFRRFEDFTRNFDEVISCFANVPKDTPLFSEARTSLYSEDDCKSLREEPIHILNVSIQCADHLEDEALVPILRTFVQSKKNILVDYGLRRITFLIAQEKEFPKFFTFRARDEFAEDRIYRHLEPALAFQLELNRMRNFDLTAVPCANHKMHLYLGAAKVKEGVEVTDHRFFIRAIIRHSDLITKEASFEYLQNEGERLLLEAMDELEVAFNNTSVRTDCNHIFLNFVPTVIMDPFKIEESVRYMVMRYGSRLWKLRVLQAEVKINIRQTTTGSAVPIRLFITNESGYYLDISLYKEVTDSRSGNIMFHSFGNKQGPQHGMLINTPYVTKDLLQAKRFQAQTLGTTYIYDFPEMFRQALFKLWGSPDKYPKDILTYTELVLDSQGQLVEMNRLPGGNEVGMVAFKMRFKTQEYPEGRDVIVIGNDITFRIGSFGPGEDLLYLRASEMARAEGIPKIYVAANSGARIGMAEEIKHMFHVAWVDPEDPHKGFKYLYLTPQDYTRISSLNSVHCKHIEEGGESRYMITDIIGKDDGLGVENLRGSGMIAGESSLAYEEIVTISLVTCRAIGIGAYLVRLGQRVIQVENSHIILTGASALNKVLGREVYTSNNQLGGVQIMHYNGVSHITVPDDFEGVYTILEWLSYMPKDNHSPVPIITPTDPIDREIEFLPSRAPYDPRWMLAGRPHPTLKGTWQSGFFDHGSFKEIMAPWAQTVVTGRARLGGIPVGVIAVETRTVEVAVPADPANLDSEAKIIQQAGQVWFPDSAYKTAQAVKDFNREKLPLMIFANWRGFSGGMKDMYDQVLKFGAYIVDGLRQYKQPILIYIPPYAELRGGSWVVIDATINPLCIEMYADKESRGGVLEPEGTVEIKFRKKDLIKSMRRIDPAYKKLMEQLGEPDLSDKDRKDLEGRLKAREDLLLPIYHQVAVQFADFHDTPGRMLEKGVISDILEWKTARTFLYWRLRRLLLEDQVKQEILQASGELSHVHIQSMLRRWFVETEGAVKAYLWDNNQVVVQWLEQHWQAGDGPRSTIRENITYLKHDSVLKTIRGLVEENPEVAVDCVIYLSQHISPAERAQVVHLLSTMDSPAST
Experiment: Acetyl-CoA carboxylase enzyme assay (malonyl-CoA formation by LC/MS/MS)
Assay type: biochemical
Details: recombinant human ACC2 (aa 144-2458); read-out: IC50 ACC2
Each item that follows carries a reported IC50.
ASSAY_METRIC: IC50 (nM)

# RECORD_SMILES, VALUE_COMPARATOR, RESULT_VALUE
data = [
    ("COc1cc(Nc2nc3cc(S(=O)(=O)Nc4ccc(C(=O)OC(C)C)cc4)ccc3[nH]2)cc(OC)c1", "=", 612),
    ("CC[C@H]1CCc2cc(S(=O)(=O)N[C@H]3CC[C@H](C(=O)N[C@H](C)c4ccc(F)cc4)CC3)ccc2N1", "=", 90),
    ("Cc1nc2cc(S(=O)(=O)N[C@H]3CC[C@H](C(=O)N[C@H](C)c4ccc(F)cc4)CC3)ccc2[nH]1", "=", 252),
    ("C[C@@H](NC(=O)[C@H]1CC[C@H](NS(=O)(=O)c2ccc3[nH]c(Nc4cccc(C#N)c4)nc3c2)CC1)c1ccccc1", "<", 10),
]
